# measured_target: human uPAR displayed on the surface of MDA-MB-231 cells (human, UniProt Q03405 23-305)
# Sequence (Q03405 23-305): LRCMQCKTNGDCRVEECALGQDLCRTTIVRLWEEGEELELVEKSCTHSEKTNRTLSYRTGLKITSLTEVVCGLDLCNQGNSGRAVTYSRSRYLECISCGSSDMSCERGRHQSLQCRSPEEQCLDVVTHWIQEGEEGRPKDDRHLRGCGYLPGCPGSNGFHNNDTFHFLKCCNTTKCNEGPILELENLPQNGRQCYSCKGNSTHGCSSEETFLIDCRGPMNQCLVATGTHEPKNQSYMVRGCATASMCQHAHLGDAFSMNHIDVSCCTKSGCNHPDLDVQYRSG
# test_summary: cell-based or functional assay
Reported ADCC NK-92 EC50 values are given for each entry in this list.
Answers without a unit are incomplete; give the number and then its unit.

Would you please look over these solved cases?
# binder, readout_kind, test_value
rows = [
    ("Antibody 3159 (antibody, human IgG1, V domains shown, Chimeric: mouse VH/VL linked to Herceptin (trastuzumab) human IgG1 / kappa constant regions) VH: QVTLKESGPGILQSSLTLSLTCSLSGFSLSTSGMGVSWIRQPSGKGLEWLAHIYWDDDKRYNPSLKTRLTISKDASRDQVFLKIISVDTADTGTYYCGRRVRNYFSGTSYWYFDVWGTGTTVTVSS VL: DVLMTQTPLSLSVSLGDQASISCRSSQNILHRTGNTYLEWYLQKPGQSPKLLIYKVSNRFSGVPDRFSGSGSGTDFTLKISRLEAEDLGVYYCFQGSYVPFTFGSGTKLEMK", "ADCC NK-92 EC50", "0.887 nM"),
    ("Antibody 11857 (antibody, human IgG1, V domains shown) VH: EVQLRQSGPELVKPGASVKISCKASGYTFTDYYMNWVKQSHEKSLEWIGNINPNNGGTDYNQKFKGKATLTVDKSSSTAYMELRSLTSEDSAVYYCARSYGSRFPYWGLGTLVTVSA VL: DIQMTQTTSSLSASLGDRVTISCRASQDITNYLSWYQQKPDGTVKLLIFYTAVLQSGFPLRFSGSGSGADYSLTISNLEQEDFATYFCQQGHTLPWTFGGGTKLEIK", "ADCC NK-92 EC50", "5.59 nM"),
    ("Antibody 3595 (antibody, human IgG1, V domains shown, Chimeric: mouse VH/VL linked to Herceptin (trastuzumab) human IgG1 / kappa constant regions) VH: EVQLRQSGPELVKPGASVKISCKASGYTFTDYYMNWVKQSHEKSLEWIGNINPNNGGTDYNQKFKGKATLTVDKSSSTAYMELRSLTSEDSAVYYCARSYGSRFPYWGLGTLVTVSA VL: DIQMTQTTSSLSASLGDRVTISCRASQDITNYLSWYQQKPDGTVKLLIFYTSFLQSGVPLRFSGSGSGADYSLTISNLEQEDFATYFCQQGHTLPWTFGGGTKLEIK", "ADCC NK-92 EC50", "0.2 nM"),
]

Now turn to the next binder.
Entry Antibody 8163 (antibody, human IgG1, V domains shown, Chimeric: mouse VH/VL linked to Herceptin (trastuzumab) human IgG1 / kappa constant regions) VH: EVQLVESGGGLVQPGESLTLSCDSNEFDFPSHDMSWVRKTPEKRLELVAAIDSDGGLTYYSNSRERRFIISRDNTKNTLYLQMRSLRSEDTALYYCARRRASYWYFDVWGTGTTVTVSS VL: DILLTQSPAILPVSPGERVSFSCRASQNIGTSIHWYQQRTNGSPRLLIKYASESISGIPSRFSGSGSGTDFTLSINGVESEDIGDYYCQQSNSWPTFGGGTKLEIK ; ADCC NK-92 EC50 = 1.14 nM

Origin of values: patent US20260116983A1
